Assay: in vitro
Conditions: human, Cell viability, Mean (%)
MEASUREMENT_KIND: viability at 48 h, 0.01 % (%)
// return numeric value only (unit: %, not printed)

Entry CCCCCCCC/C=C\CCCCCCCC(=O)OCCOCC(OCCO)C1OCC(OCCO)C1OCCO (stereo not shown) [Polysorbate 80, polysorbate 80] has what viability at 48 h, 0.01 %? 110

---

Experiment: in vitro
Details: human, Cell viability, Mean (%)
Source text: Cell viability and cell morphology were examined to evaluate the toxicity of excipients on retinal pigment epithelial cells. […] To assess cell viability, mitochondrial metabolism was quantified through conventional colorometric assays (i.e., the MTT assay). […] A resulting purple solution is spectrophotometrically measured. Cell viability is relative to amount of formazan and calculated as a percentage of remaining treated compared to non-treated cells. […]
MEASUREMENT_KIND: viability at 48 h, 0.02 % (%)
# value in %; strip the unit string

Sample CCCCCCCC/C=C\CCCCCCCC(=O)OCCOCC(OCCO)C1OCC(OCCO)C1OCCO (stereo not shown) [Polysorbate 80, polysorbate 80] — what was its viability at 48 h, 0.02 %? 118
